# credit: patent US9914730B2

Kindly state IC50 for each of the entries shown.
# TARGET_SYSTEM: full-length human PKCι (Homo sapiens)
# Construct: Recombinant, full-length human PKCι expressed in Sf21 insect cells is also commercially available
# Sequence (P41743 whole entry): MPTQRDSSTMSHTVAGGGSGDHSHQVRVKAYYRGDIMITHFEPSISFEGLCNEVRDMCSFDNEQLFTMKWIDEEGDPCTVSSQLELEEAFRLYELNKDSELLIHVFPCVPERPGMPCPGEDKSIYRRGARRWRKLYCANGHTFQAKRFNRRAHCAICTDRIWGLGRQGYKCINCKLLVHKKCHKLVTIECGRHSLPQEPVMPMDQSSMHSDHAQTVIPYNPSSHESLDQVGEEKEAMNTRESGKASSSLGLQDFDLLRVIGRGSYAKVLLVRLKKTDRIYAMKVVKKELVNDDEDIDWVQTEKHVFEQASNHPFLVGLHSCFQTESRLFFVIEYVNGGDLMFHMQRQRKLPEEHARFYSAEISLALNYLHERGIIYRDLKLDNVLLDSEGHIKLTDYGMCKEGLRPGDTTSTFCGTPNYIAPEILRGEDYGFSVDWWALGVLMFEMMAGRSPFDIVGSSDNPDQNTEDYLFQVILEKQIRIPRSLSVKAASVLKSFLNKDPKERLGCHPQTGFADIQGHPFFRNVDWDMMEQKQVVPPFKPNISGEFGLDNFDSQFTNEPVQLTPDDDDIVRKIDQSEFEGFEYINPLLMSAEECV
# METHOD_DESCRIPTION: PKCι IC50 IMAP assay, full-length PKCι at 150 μM ATP
# DETAILS: read-out: IC50 in IMAP assay against full length PKCi at 150 μM ATP

INPUT: Request body: readout IC50, system full-length human PKCι (Homo sapiens), query `Clc1c[nH]c2nccc(-c3nc(N4CCNCC4)c4c(C5CC5)cncc4n3)c12` . Return the value.
OUTPUT: < 0.1 µM

INPUT: Try this molecule too: CC1CN(c2nc(-c3ccnc(Nc4c(F)cccc4F)c3)nc3cncc(C4CC4)c23)CC(C)N1 (stereo not shown)
OUTPUT: < 0.1 µM

INPUT: Try this molecule too: `CN(c1nc(-c2ccnc3[nH]c(C(F)(F)F)cc23)nc2cncc(C3CC3)c12)[C@@H]1CCNC1`
OUTPUT: < 0.1 µM

INPUT: Try this molecule too: `C[C@@H](Nc1cc(-c2nc(N3CCNCC3)c3c(C4CC4)cncc3n2)ccn1)c1cccc2ccccc12`
OUTPUT: < 0.1 µM

INPUT: Try this molecule too: `C[C@H]1CN(c2nc(-c3ccnc(Nc4ccccc4)c3)nc3cncc(Cl)c23)CCN1`
OUTPUT: 0.1 to 1 µM

INPUT: Try this molecule too: `CCNC(=O)N[C@H](CNc1nc(-c2ccncc2)nc2cnccc12)Cc1ccccc1`
OUTPUT: 10 to 40 µM

INPUT: Try this molecule too: `CCc1ccc(F)c(Nc2cc(-c3nc(N4CCNCC4)c4c(C5CC5)cncc4n3)ccn2)c1`
OUTPUT: < 0.1 µM

INPUT: Try this molecule too: `COc1cncc2nc(-c3ccnc(Nc4ccc(N5CCOCC5)cc4C)c3)nc(N3CCNCC3)c12`
OUTPUT: < 0.1 µM

INPUT: Try this molecule too: `Fc1cccnc1-c1cc2c(-c3nc(N4CCNCC4)c4c(C5CC5)cncc4n3)ccnc2[nH]1`
OUTPUT: < 0.1 µM

INPUT: Try this molecule too: `c1ccc2cc(Nc3cc(-c4nc(N5CCNCC5)c5c(C6CC6)cncc5n4)ccn3)ccc2c1`
OUTPUT: < 0.1 µM

INPUT: Try this molecule too: c1cc(-c2nc(N3CCNCC3)c3c(C4CCC4)cncc3n2)c2cc(C3CCCO3)[nH]c2n1 (stereo not shown)
OUTPUT: < 0.1 µM

INPUT: Try this molecule too: `c1cc(-c2nc(N3CCNCC3)c3c(C4CC4)cncc3n2)cc(NCC2CC2)n1`
OUTPUT: < 0.1 µM

INPUT: Try this molecule too: `c1cncc(Nc2cc(-c3nc(N[C@@H]4CCNC4)c4ccncc4n3)ccn2)c1`
OUTPUT: 0.1 to 1 µM

INPUT: Try this molecule too: `c1cc(-c2nc(N3CCNCC3)c3c(C4CC4)cncc3n2)c2cc(C3CC3)[nH]c2n1`
OUTPUT: < 0.1 µM

INPUT: Try this molecule too: `Fc1cc(F)c(F)c(Nc2cc(-c3nc(N4CCNCC4)c4c(C5CCC5)cncc4n3)ccn2)n1`
OUTPUT: < 0.1 µM

INPUT: Try this molecule too: `COc1cncc2nc(-c3ccnc(Nc4cncc(C)c4)c3)nc(N3CCNCC3)c12`
OUTPUT: < 0.1 µM
